FYI, the data here is from the supplement of paper PMC10567573.

Exercise: for every item that follows, state its recorded protein stability index.
B1: STK38L (parent)
chain: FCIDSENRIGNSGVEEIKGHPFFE

variants of: B1; experiment: protein stability index of a GFP-peptide fusion (GPS, HEK-293T) (PSI 1-6); higher = more stable; settings: c terminus: a fixed tail appended;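 further: lentivirally expressed fusions sorted by FACS into six bins by GFP to DsRed ratio, PSI derived from sequencing read proportions per bin multiplied by bin number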
One number for each entry.

I have this variant here, `G19R` , and I need its recorded protein stability index.
1.63

Give its protein stability index value. Item: `G19N`
2.68

What value of protein stability index has been reported for the following variant? `G19W`
2.27

Please give protein stability index for each item listed below.
1. I3K
2. D4E

2.5
2.91

Okay, here is my list. What is protein stability index for each of these?
1. K18D
2. I17S
3. I3A
4. V14T
5. F23M
6. N11P

1: 4.12; 2: 3.17; 3: 2.04; 4: 2.29; 5: 1.07; 6: 2.12
